- Tested on: common chickweed
- EXPERIMENTAL PROTOCOL: Test E pre-/postemergence herbicide test
- Format: in vivo, Stellaria media
- REPORTED CONDITIONS: Preemergence; 250 g ai/ha; scale 0 (no effect) to 100 (complete control)
- Description: […] At the same time, plants selected from these weed species were treated with postemergence applications of some of the test chemicals formulated in the same manner. […] Treated plants and controls were maintained in a greenhouse for 12 to 14 days, after which time all species were compared to controls and visually evaluated. […]
Can you tell me Plant response rating, Chickweed for the items I'm about to list?
Numbers only.

| COMPOUND | OBSERVED VALUE |
| --- | --- |
| CCc1nn(C(C)C)nc1C(=O)Nc1cccc(C(=O)N2CCCCC2)c1 [Compound 385] | 60 |

For each of the compounds below, note its Plant response rating, Chickweed.
1. CCNC(=O)c1ccc(F)c(NC(=O)c2cn(C(C)(C)C)nc2CC)c1 [Compound 193]
2. CCc1nn(C(C)C)nc1C(=O)Nc1cccc(C(=O)N(C)CC)c1 [Compound 386]
3. CCc1nn(C(C)(C)C)cc1C(=O)Nc1cc(C(=O)N(C)C)ccc1F [Compound 222]

1. 100
2. 95
3. 100
